Parameter 'readout' = MIC; parameter 'system' = Streptococcus Pneumonia 5979.
measured-attribute: MIC (µg/mL)

>>> recorded_number("CC[C@H]1OC(=O)[C@H](C)C(=O)[C@H](C)[C@@H](O[C@@H]2O[C@H](C)C[C@H](N(C)C)[C@H]2O)[C@](C)(OCC#Cc2ccc(-c3ccc(F)cc3)s2)C[C@@H](C)C(=O)[C@H](C)[C@H]2NC(=O)O[C@@]21C [Example 22]")
4
>>> recorded_number("CC[C@H]1OC(=O)[C@H](C)C(=O)[C@H](C)[C@@H](O[C@@H]2O[C@H](C)C[C@H](N(C)C)[C@H]2O)[C@](C)(OCC#Cc2ccc(-c3cncc(C#N)c3)s2)C[C@@H](C)C(=O)[C@H](C)[C@H]2NC(=O)O[C@@]21C [Example 8]")
0.25
